meta.source: ChEMBL document CHEMBL5303573

conditionSet: bacteroides stercoris, 12 h, 2 µM
Description: The drug is tested on Bacteroides stercoris strain: ATCC43183 for biotransformation. The drug concentrations were measured before and after a 12-h incubation by liquid-chromatography-coupled mass spectrometry (LC–MS)

>  <compound>
COc1ccc2[nH]c([S+]([O-])Cc3ncc(C)c(OC)c3C)nc2n1 (centres undefined)

>  <Bacterial Biotransformation>
Compound metabolized

$$$$
>  <compound>
CCc1nn(CCCN2CCN(c3cccc(Cl)c3)CC2)c(=O)n1CCOc1ccccc1

>  <Bacterial Biotransformation>
Compound NOT metabolized

$$$$
>  <compound>
N#Cc1ccc2c(c1)N(CCCN1CCC(O)CC1)c1ccccc1S2

>  <Bacterial Biotransformation>
Compound NOT metabolized

$$$$
>  <compound>
CCN(CC)C(=O)C1(c2ccccc2)CC1CN (centres undefined)

>  <Bacterial Biotransformation>
Compound NOT metabolized

$$$$
>  <compound>
CN(C)CCC=C1c2ccccc2C=Cc2ccccc21

>  <Bacterial Biotransformation>
Compound NOT metabolized

$$$$
>  <compound>
CCC(COC(=O)c1cc(OC)c(OC)c(OC)c1)(c1ccccc1)N(C)C.O=C(O)/C=C\C(=O)O (centres undefined)

>  <Bacterial Biotransformation>
Compound metabolized

$$$$
>  <compound>
C#C[C@]1(O)CC[C@H]2[C@@H]3CCC4=Cc5oncc5C[C@]4(C)[C@H]3CC[C@@]21C

>  <Bacterial Biotransformation>
Compound metabolized

$$$$
>  <compound>
OC(CCN1CCCCC1)(c1ccccc1)C1CC2C=CC1C2 (centres undefined)

>  <Bacterial Biotransformation>
Compound NOT metabolized

$$$$
>  <compound>
CCN(CC)C(C)CN1c2ccccc2Sc2ccccc21 (centres undefined)

>  <Bacterial Biotransformation>
Compound NOT metabolized

$$$$

###

procedureSummary: The drug is tested on Bacteroides fragilis strain: HMW610 for biotransformation. The drug concentrations were measured before and after a 12-h incubation by liquid-chromatography-coupled mass spectrometry (LC–MS)
conditionSet: 2 µM
recordedMetric: Bacterial Biotransformation

>  <molecule>
CCCc1nc(C(C)(C)O)c(C(=O)OCc2oc(=O)oc2C)n1Cc1ccc(-c2ccccc2-c2nnn[nH]2)cc1 [OLMESARTAN MEDOXOMIL]

>  <result>
Compound metabolized

$$$$
>  <molecule>
c1ccc([C@H]2CN3CCSC3=N2)cc1 [LEVAMISOLE]

>  <result>
Compound metabolized

$$$$
>  <molecule>
CCCCCNC(=N)N/N=C/c1c[nH]c2ccc(OC)cc12.O=C(O)/C=C\C(=O)O [TEGASEROD MALEATE]

>  <result>
Compound NOT metabolized

$$$$
>  <molecule>
Br.CN1CCC[C@@H]1Cc1c[nH]c2ccc(CCS(=O)(=O)c3ccccc3)cc12 [ELETRIPTAN HYDROBROMIDE]

>  <result>
Compound NOT metabolized

$$$$
>  <molecule>
CC(=O)OCC(CCn1cnc2cnc(N)nc21)COC(C)=O [FAMCICLOVIR]

>  <result>
Compound metabolized

$$$$
>  <molecule>
CCC(COC(=O)c1cc(OC)c(OC)c(OC)c1)(c1ccccc1)N(C)C.O=C(O)/C=C\C(=O)O (stereo not drawn)

>  <result>
Compound NOT metabolized

$$$$
>  <molecule>
C[C@]12CCC(=O)C=C1[C@@H]1C[C@@H]1[C@H]1[C@@H]3[C@@H]4C[C@@H]4[C@@]4(CCC(=O)O4)[C@@]3(C)CC[C@@H]12 [DROSPIRENONE]

>  <result>
Compound metabolized

$$$$
>  <molecule>
CC[C@H](C)C(=O)O[C@H]1C[C@@H](C)C=C2C=C[C@H](C)[C@H](CC[C@@H]3C[C@@H](O)CC(=O)O3)[C@H]21 [LOVASTATIN]

>  <result>
Compound metabolized

$$$$
>  <molecule>
CCN(C(C)=O)c1cccc(-c2ccnc3c(C#N)cnn23)c1 [ZALEPLON]

>  <result>
Compound metabolized

$$$$
>  <molecule>
COc1cc2nc(N3CCN(C(=O)C4CCCO4)CC3)nc(N)c2cc1OC (stereo not drawn) [TERAZOSIN]

>  <result>
Compound NOT metabolized

$$$$
>  <molecule>
CNC(=C[N+](=O)[O-])NCCSCc1ccc(CN(C)C)o1 [RANITIDINE]

>  <result>
Compound NOT metabolized

$$$$
>  <molecule>
CC(C)(C)NC[C@H](O)COc1ccccc1C1CCCC1.CC(C)(C)NC[C@H](O)COc1ccccc1C1CCCC1.O=S(=O)(O)O [PENBUTOLOL SULFATE]

>  <result>
Compound NOT metabolized

$$$$
>  <molecule>
CCN(CC)CCNC(=O)c1cc(S(C)(=O)=O)ccc1OC [TIAPRIDE]

>  <result>
Compound NOT metabolized

$$$$
>  <molecule>
CC(CN(C)C)CN1c2ccccc2CCc2ccccc21.O=C(O)/C=C\C(=O)O (stereo not drawn) [TRIMIPRAMINE MALEATE]

>  <result>
Compound NOT metabolized

$$$$
>  <molecule>
CC(=O)OCC(=O)[C@@]1(OC(C)=O)[C@@H](C)C[C@H]2[C@@H]3C[C@H](F)C4=CC(=O)C=C[C@]4(C)[C@@]3(F)[C@@H](O)C[C@@]21C [DIFLORASONE DIACETATE]

>  <result>
Compound metabolized

$$$$
>  <molecule>
O=C(NCc1ccccc1)OCCO [BURAMATE]

>  <result>
Compound NOT metabolized

$$$$
>  <molecule>
O=c1[nH]c2ccccc2n1C1CCN(CCCC(c2ccc(F)cc2)c2ccc(F)cc2)CC1 [PIMOZIDE]

>  <result>
Compound NOT metabolized

$$$$
>  <molecule>
CCN1CCCC1CNC(=O)c1cc(S(N)(=O)=O)ccc1OC (stereo not drawn) [SULPIRIDE]

>  <result>
Compound metabolized

$$$$
>  <molecule>
Nc1nc(N)nc(-c2cc(Cl)ccc2Cl)n1.O=C(O)/C=C\C(=O)O [IRSOGLADINE MALEATE]

>  <result>
Compound NOT metabolized

$$$$
>  <molecule>
CC(=O)SCC(Cc1ccccc1)C(=O)NCC(=O)OCc1ccccc1 (stereo not drawn) [RACECADOTRIL]

>  <result>
Compound metabolized

$$$$
>  <molecule>
CN1CCN(CC/C=C2/c3ccccc3Sc3ccc(S(=O)(=O)N(C)C)cc32)CC1 [THIOTHIXENE]

>  <result>
Compound NOT metabolized

$$$$
>  <molecule>
CNC(=C[N+](=O)[O-])NCCSCc1csc(CN(C)C)n1 [NIZATIDINE]

>  <result>
Compound metabolized

$$$$
>  <molecule>
OCCOCCN1CCN(C2=Nc3ccccc3Sc3ccccc32)CC1 [QUETIAPINE]

>  <result>
Compound NOT metabolized

$$$$
>  <molecule>
COCCc1ccc(OCC(O)CNC(C)C)cc1.COCCc1ccc(OCC(O)CNC(C)C)cc1.O=C(O)C(O)C(O)C(=O)O (stereo not drawn) [METOPROLOL TARTRATE]

>  <result>
Compound NOT metabolized

$$$$
>  <molecule>
CC(C)NCC(O)COc1ccc(CCOCC2CC2)cc1 (stereo not drawn) [BETAXOLOL]

>  <result>
Compound NOT metabolized

$$$$
>  <molecule>
CCCC(C)(COC(N)=O)COC(=O)NC(C)C (stereo not drawn) [CARISOPRODOL]

>  <result>
Compound metabolized

$$$$
>  <molecule>
COc1cc2nc(N3CCN(C(=O)C4COc5ccccc5O4)CC3)nc(N)c2cc1OC.CS(=O)(=O)O (stereo not drawn) [DOXAZOSIN MESYLATE]

>  <result>
Compound NOT metabolized

$$$$
>  <molecule>
C[C@@H]1CC[C@H]2[C@@H](C)C(=O)O[C@@H]3O[C@@]4(C)CC[C@@H]1[C@]32OO4 [ARTEMISININ]

>  <result>
Compound metabolized

$$$$
>  <molecule>
CN/C(=N/CCSCc1nc[nH]c1C)NC#N [CIMETIDINE]

>  <result>
Compound NOT metabolized

$$$$
>  <molecule>
O=P(O)(O)O.c1ccc(CN(CC2=NCCN2)c2ccccc2)cc1 [ANTAZOLINE PHOSPHATE]

>  <result>
Compound NOT metabolized

$$$$
>  <molecule>
CC1=C(CC(=O)O)c2cc(F)ccc2/C1=C\c1ccc([S+](C)[O-])cc1 (stereo not drawn)

>  <result>
Compound NOT metabolized

$$$$
>  <molecule>
CCN(CC)CC#CCOC(=O)C(O)(c1ccccc1)C1CCCCC1.Cl (stereo not drawn) [OXYBUTYNIN CHLORIDE]

>  <result>
Compound metabolized

$$$$
>  <molecule>
CN1CCC(=C2c3ccccc3CC(=O)c3sccc32)CC1.O=C(O)/C=C/C(=O)O [KETOTIFEN FUMARATE]

>  <result>
Compound NOT metabolized

$$$$

###

procedureSummary: The drug is tested on Clostridium ramosum strain: DSM1402 for biotransformation. The drug concentrations were measured before and after a 12-h incubation by liquid-chromatography-coupled mass spectrometry (LC–MS)
conditionSet: thomasclavelia ramosa, 2 µM
recordedMetric: Bacterial Biotransformation

>  <compound>
CC(=O)SCC(Cc1ccccc1)C(=O)NCC(=O)OCc1ccccc1 (stereo not given)

>  <result>
Compound NOT metabolized

$$$$
>  <compound>
N=C(N)NC(=O)Cc1c(Cl)cccc1Cl

>  <result>
Compound NOT metabolized

$$$$
>  <compound>
CC12CC3CC(C)(C1)CC(N)(C3)C2 [MEMANTINE]

>  <result>
Compound NOT metabolized

$$$$
>  <compound>
CCN(CC)C(=O)C1(c2ccccc2)CC1CN (stereo not given)

>  <result>
Compound NOT metabolized

$$$$
>  <compound>
CC#CCn1c(N2CCC[C@@H](N)C2)nc2c1c(=O)n(Cc1nc(C)c3ccccc3n1)c(=O)n2C

>  <result>
Compound NOT metabolized

$$$$
>  <compound>
CNC(=C[N+](=O)[O-])NCCSCc1ccc(CN(C)C)o1

>  <result>
Compound metabolized

$$$$
>  <compound>
CC(=O)Oc1ccc(C(c2ccc(OC(C)=O)cc2)c2ccccn2)cc1

>  <result>
Compound metabolized

$$$$
>  <compound>
CC(=O)O[C@]1(C(C)=O)CC[C@H]2[C@@H]3C=C(C)C4=CC(=O)CC[C@]4(C)[C@H]3CC[C@@]21C [MEGESTROL ACETATE]

>  <result>
Compound NOT metabolized

$$$$
>  <compound>
CN[C@H]1CC[C@@H](c2ccc(Cl)c(Cl)c2)c2ccccc21

>  <result>
Compound NOT metabolized

$$$$
>  <compound>
CC(C)C[C@H]1C(=O)N2CCC[C@H]2[C@]2(O)O[C@](NC(=O)[C@@H]3C=C4c5cccc6[nH]c(Br)c(c56)C[C@H]4N(C)C3)(C(C)C)C(=O)N12.CS(=O)(=O)O [BROMOCRIPTINE MESYLATE]

>  <result>
Compound metabolized

$$$$
>  <compound>
CCCC(C)(COC(N)=O)COC(=O)NC(C)C (stereo not given)

>  <result>
Compound NOT metabolized

$$$$
>  <compound>
CCN1CCCC1CNC(=O)c1cc(S(N)(=O)=O)ccc1OC (stereo not given) [SULPIRIDE]

>  <result>
Compound NOT metabolized

$$$$
>  <compound>
CC(CCc1ccccc1)NCC(O)c1ccc(O)c(C(N)=O)c1 (stereo not given)

>  <result>
Compound NOT metabolized

$$$$
>  <compound>
CCC1(c2ccc(N)cc2)CCC(=O)NC1=O (stereo not given) [AMINOGLUTETHIMIDE]

>  <result>
Compound NOT metabolized

$$$$
>  <compound>
COc1ccc(Cc2nccc3cc(OC)c(OC)cc23)cc1OC

>  <result>
Compound NOT metabolized

$$$$
>  <compound>
COc1c(C)c2c(c(O)c1C/C=C(\C)CCC(=O)OCCN1CCOCC1)C(=O)OC2 [MYCOPHENOLATE MOFETIL]

>  <result>
Compound metabolized

$$$$
>  <compound>
CCOC(=O)C1=C(C)NC(C)=C(C(=O)OC)C1c1cccc([N+](=O)[O-])c1 (stereo not given)

>  <result>
Compound metabolized

$$$$
>  <compound>
CN1[C@@H]2CC[C@H]1C[C@@H](OC(=O)c1c[nH]c3ccccc13)C2

>  <result>
Compound NOT metabolized

$$$$
>  <compound>
C#C[C@]1(OC(C)=O)CC[C@H]2[C@@H]3CCC4=CC(=O)CC[C@@H]4[C@H]3CC[C@@]21C [NORETHINDRONE ACETATE]

>  <result>
Compound NOT metabolized

$$$$
>  <compound>
CCOC(=O)[C@H](CCc1ccccc1)N[C@H]1CCc2ccccc2N(CC(=O)O)C1=O

>  <result>
Compound NOT metabolized

$$$$
>  <compound>
CC(C)(C)N.CCC[C@H](N[C@@H](C)C(=O)N1[C@H](C(=O)O)C[C@@H]2CCCC[C@@H]21)C(=O)OCC

>  <result>
Compound NOT metabolized

$$$$
>  <compound>
CN(C)CC(c1ccc(O)cc1)C1(O)CCCCC1.O=C(O)CCC(=O)O (stereo not given) [DESVENLAFAXINE SUCCINATE]

>  <result>
Compound NOT metabolized

$$$$
>  <compound>
CCOC(=O)C1=C[C@]2(CC)CCCN3CCc4c(n1c1ccccc41)[C@@H]32

>  <result>
Compound NOT metabolized

$$$$
>  <compound>
COc1ccc(C(CN(C)C)C2(O)CCCCC2)cc1 (stereo not given)

>  <result>
Compound NOT metabolized

$$$$
>  <compound>
CCCCC(=O)O[C@]1(C(=O)CO)[C@@H](C)C[C@H]2[C@@H]3CCC4=CC(=O)C=C[C@]4(C)[C@@]3(F)[C@@H](O)C[C@@]21C [BETAMETHASONE VALERATE]

>  <result>
Compound NOT metabolized

$$$$
>  <compound>
CC(=O)OCC(=O)[C@@]12N=C(C)O[C@@H]1C[C@H]1[C@@H]3CCC4=CC(=O)C=C[C@]4(C)[C@H]3[C@@H](O)C[C@@]12C

>  <result>
Compound metabolized

$$$$
>  <compound>
CN1C[C@H](C(=O)N[C@]2(C)O[C@@]3(O)[C@@H]4CCCN4C(=O)[C@H](Cc4ccccc4)N3C2=O)C=C2c3cccc4[nH]cc(c34)C[C@H]21.CN1C[C@H](C(=O)N[C@]2(C)O[C@@]3(O)[C@@H]4CCCN4C(=O)[C@H](Cc4ccccc4)N3C2=O)C=C2c3cccc4[nH]cc(c34)C[C@H]21.O=C(O)C(O)C(O)C(=O)O [ERGOTAMINE TARTRATE]

>  <result>
Compound metabolized

$$$$
>  <compound>
CNNCc1ccc(C(=O)NC(C)C)cc1

>  <result>
Compound NOT metabolized

$$$$
>  <compound>
CC(=O)OCC(=O)[C@@]1(O)[C@@H](C)C[C@H]2[C@@H]3CCC4=CC(=O)C=C[C@]4(C)[C@@]3(F)[C@@H](O)C[C@@]21C [BETAMETHASONE ACETATE]

>  <result>
Compound NOT metabolized

$$$$
>  <compound>
OC(Cn1cncn1)(Cn1cncn1)c1ccc(F)cc1F

>  <result>
Compound NOT metabolized

$$$$
